I'd appreciate it if you could supply TGI values for the items below.
System: T-47D breast
Experiment: NCI tumour cell line growth inhibition, 48 h

Ask: Determine from records and report TGI for `COc1cc(-c2cc(-c3nc4ccc(F)cc4[nH]3)[nH]n2)cc(OC)c1OC`
Reply: 3.09 µM

Ask: Determine from records and report TGI for `COc1ccc2nc3c(n2c1)C(=O)C(=O)c1ccccc1-3`
Reply: 5.5 µM

Ask: Determine from records and report TGI for `CCOc1ccccc1C(=O)/C=C/c1cc2ccccc2[nH]c1=O`
Reply: 19.6 µM

Ask: Determine from records and report TGI for CC1=CC(C)C(C)N(CC2=NCCN2)c2ccccc21 (stereo not drawn)
Reply: > 100 µM

Ask: Determine from records and report TGI for `NC1(P(=O)(O)O)CCCCC1`
Reply: > 100 µM

Ask: Determine from records and report TGI for `CCOC(=O)c1ccc(C(=O)/C(C#N)=C2\CCCN2)n1C`
Reply: > 100 µM

Ask: Determine from records and report TGI for `CN(C)CCNS(=O)(=O)N(C)C`
Reply: > 100 µM

Ask: Determine from records and report TGI for CN1CCC(CN2c3ccccc3Sc3ccccc32)C1 (stereo not drawn)
Reply: 34.2 µM

Ask: Determine from records and report TGI for CCOP(=O)(OCC)C(C)(CC)NC1=NC(C(F)(F)F)(C(F)(F)F)NC(=O)N1 (stereo not drawn)
Reply: > 100 µM

Ask: Determine from records and report TGI for `c1cncc(CNCCN2CCNCC2)c1`
Reply: > 100 µM

Ask: Determine from records and report TGI for COc1ccc2c(c1OC)C(=O)OC2C1c2c(c(N)c3c(c2OC)OCO3)CCN1C (stereo not drawn)
Reply: 19.6 µM

Ask: Determine from records and report TGI for `O=C1c2ccccc2CC12CCC1(CC2)OCCO1`
Reply: > 100 µM

Ask: Determine from records and report TGI for `COc1ccc(C2=Cc3nc2c(-c2ccccc2)c2ccc([nH]2)c(-c2ccccc2)c2nc(c(-c4ccccc4)c4ccc([nH]4)c3-c3ccccc3)C=C2)cc1`
Reply: > 100 µM

Ask: Determine from records and report TGI for `[N-]=[N+]=Nc1cccc(-c2n[nH]c(Cl)cc2=O)c1`
Reply: > 100 µM

Ask: Determine from records and report TGI for `c1ccc(P2c3ccccc3Nc3ccccc32)cc1`
Reply: > 100 µM

Ask: Determine from records and report TGI for `CCCCc1ccc(Nc2nc3c(ncn3COCCBr)c(=O)[nH]2)cc1`
Reply: > 100 µM

Ask: Determine from records and report TGI for COc1cc(C2c3cc4c(cc3[C@@H](Nc3ccc(F)cc3)C3CO[C@@H](O)[C@H]23)OCO4)cc(OC)c1O (stereo partly drawn)
Reply: > 25 µM

Ask: Determine from records and report TGI for `O=C1/C(=C/c2ccc(Cl)cc2)N=C(c2ccccc2)N1c1nc2ccc(Sc3ccccc3)cc2[nH]1`
Reply: > 100 µM

Ask: Determine from records and report TGI for `CN(C)c1nc2n(CCO)ccnc-2c(=O)n1`
Reply: > 100 µM

Ask: Determine from records and report TGI for CC1(c2ccc(Cl)cc2)NC(=NCCO)c2ccccc21 (stereo not drawn)
Reply: > 48 µM

Ask: Determine from records and report TGI for COc1cc2c(cc1OCCCC(=O)Nc1cc(C(=O)Nc3cc(C(=O)Nc4cc(C(=O)NCCCN(C)C)n(C)n4)n(C)c3)n(C)c1)N=CC1CCCN1C2=O (stereo not drawn)
Reply: > 100 µM

Ask: Determine from records and report TGI for `CCN(CC)C(=S)SS(=O)(=O)c1ccc(N)cc1`
Reply: > 100 µM

Ask: Determine from records and report TGI for `CCNCCNc1cc(-c2ccc(Cl)c(Cl)c2)c(C#N)c2nc3ccccc3n12`
Reply: 3.2 µM

Ask: Determine from records and report TGI for `CN/N=C(/C=C/c1ccccc1)C(C)C`
Reply: > 100 µM

Ask: Determine from records and report TGI for `O=S(=O)(Nc1nccs1)c1ccc(Nc2nc(-c3cccs3)nc3ccc(I)cc23)cc1`
Reply: 56.6 µM

Ask: Determine from records and report TGI for `CC(C)C(=O)NCC[C@@H](CNC(=O)OC(C)(C)C)NC(=O)OC(C)(C)C`
Reply: > 100 µM

Ask: Determine from records and report TGI for `Cc1ccc(C(=O)N/N=C(\N=Nc2cccc(C)c2)c2ccc(N(CCC#N)CCC#N)cc2C)cc1`
Reply: > 100 µM

Ask: Determine from records and report TGI for `O=Cc1cn(Cc2ccccc2)c2ccccc12`
Reply: > 100 µM

Ask: Determine from records and report TGI for `Cc1ncc([N+](=O)[O-])n1CCNC(=O)CCC(=O)NCCCn1ccnc1[N+](=O)[O-]`
Reply: > 100 µM

Ask: Determine from records and report TGI for `CN(C)CCNc1ccc2nnn3c4ccc(O)cc4c(=O)c1c23`
Reply: 27.1 µM

Ask: Determine from records and report TGI for `O=S(=O)(Nc1ccc2ccccc2c1)N1CCCCC1`
Reply: 45.8 µM

Ask: Determine from records and report TGI for `COc1ccc(/C=C/C(=O)Nc2cc(/C=C\c3cc(OC)c(OC)c(OC)c3)cc(OC)c2OC)cc1OC`
Reply: 8.73 µM

Ask: Determine from records and report TGI for O=C1NC(N/N=C\C(O)C(O)C(O)C(O)CO)=N/C1=C\c1ccc(Cl)cc1 (stereo not drawn)
Reply: 14.1 µM
